Field: PBM binding z-score. Provide a value for each of the sequences that follow.
- Tested on: PPARg:RXRa 30nM:10nM, anti-RXR (NR concentration 30 nM, RXRa partner concentration 10 nM)
- Method: PBM binding z-score (relative to random genomic background probes); higher = stronger binding; sequences stand for … in GC…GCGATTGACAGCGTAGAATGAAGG
The answer should be a number; do not append a unit.

Give the measured PBM binding z-score of `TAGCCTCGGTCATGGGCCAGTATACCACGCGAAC` .
-0.674

Consider next the sequence `TCTTGTAGATTAGCAGGTTAAGAAAGCTGGCCAA` in the same way.
2.55

Consider next the sequence `CTCGAAAGATCGTGCTCAGGTGAGTATACCAAAC` in the same way.
-0.236

Consider next the sequence `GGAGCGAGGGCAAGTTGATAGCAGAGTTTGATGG` in the same way.
-0.604

Consider next the sequence `CGAACTACGTCATTGACAGGACAGTGAATAGTAA` in the same way.
-0.294

Consider next the sequence `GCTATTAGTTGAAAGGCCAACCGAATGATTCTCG` in the same way.
1.27

Consider next the sequence `ATCTATAGGTAAAGTTCAGTGAAAGATCGATAGA` in the same way.
2.81

Consider next the sequence `TAGCCTAGGTCATGCGGGCCGGTATAGTGTCGGC` in the same way.
0.149

Consider next the sequence `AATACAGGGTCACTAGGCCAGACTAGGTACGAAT` in the same way.
3.21

Consider next the sequence `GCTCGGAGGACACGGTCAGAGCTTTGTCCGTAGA` in the same way.
-1.3

Where these numbers come from: the supplement of paper PMC6555819
